Attribution: paper PMC6509344

# target: UniProt:Q12809
# Sequence (Q12809 whole entry): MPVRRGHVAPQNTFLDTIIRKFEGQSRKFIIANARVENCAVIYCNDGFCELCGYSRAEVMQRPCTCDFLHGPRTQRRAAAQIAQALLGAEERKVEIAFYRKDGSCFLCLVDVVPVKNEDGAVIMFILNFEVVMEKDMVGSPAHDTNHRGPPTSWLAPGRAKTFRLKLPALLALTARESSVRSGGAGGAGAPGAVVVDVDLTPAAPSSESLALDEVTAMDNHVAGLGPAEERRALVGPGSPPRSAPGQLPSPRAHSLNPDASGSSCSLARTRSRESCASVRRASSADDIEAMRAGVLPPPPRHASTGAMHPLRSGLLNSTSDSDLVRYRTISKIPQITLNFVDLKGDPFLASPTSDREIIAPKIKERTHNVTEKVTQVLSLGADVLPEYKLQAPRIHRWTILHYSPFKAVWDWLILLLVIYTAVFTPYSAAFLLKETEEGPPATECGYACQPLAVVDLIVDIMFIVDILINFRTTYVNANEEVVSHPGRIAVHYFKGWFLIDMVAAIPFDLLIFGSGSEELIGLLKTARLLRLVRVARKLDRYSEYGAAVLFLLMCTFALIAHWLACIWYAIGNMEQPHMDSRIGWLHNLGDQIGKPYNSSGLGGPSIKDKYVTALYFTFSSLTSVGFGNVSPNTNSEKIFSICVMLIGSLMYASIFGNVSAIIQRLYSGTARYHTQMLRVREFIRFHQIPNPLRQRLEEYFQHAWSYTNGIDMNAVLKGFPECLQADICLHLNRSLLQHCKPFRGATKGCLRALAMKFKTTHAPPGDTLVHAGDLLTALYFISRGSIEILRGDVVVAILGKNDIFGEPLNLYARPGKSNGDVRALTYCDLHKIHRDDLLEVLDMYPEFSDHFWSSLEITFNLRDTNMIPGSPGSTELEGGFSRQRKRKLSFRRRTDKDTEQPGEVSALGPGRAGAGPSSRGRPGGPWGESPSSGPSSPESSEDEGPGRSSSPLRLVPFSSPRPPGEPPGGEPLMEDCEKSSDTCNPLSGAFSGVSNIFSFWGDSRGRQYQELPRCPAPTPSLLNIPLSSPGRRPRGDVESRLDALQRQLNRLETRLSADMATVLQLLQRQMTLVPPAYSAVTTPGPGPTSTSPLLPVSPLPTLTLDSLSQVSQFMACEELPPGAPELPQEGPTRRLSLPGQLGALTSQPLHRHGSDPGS
# assay name: hERG inhibition, patch-clamp with CHO-hERG transfectants
# condition parameters: hERG tail current, 0.008-25 uM
recorded endpoint: pIC50
Remember, pIC50 is on a log scale: it is -log10 of the molar concentration.

With UniProt:Q12809 as the test system, provide measured pIC50 for this molecule: C[N+](C)(C)CCC(=O)c1cccc2ccccc12.[I-] [α-NETA] 4.98

* * *

# target: Cyp2C8 (Homo sapiens)
# Sequence (P10632 1-490): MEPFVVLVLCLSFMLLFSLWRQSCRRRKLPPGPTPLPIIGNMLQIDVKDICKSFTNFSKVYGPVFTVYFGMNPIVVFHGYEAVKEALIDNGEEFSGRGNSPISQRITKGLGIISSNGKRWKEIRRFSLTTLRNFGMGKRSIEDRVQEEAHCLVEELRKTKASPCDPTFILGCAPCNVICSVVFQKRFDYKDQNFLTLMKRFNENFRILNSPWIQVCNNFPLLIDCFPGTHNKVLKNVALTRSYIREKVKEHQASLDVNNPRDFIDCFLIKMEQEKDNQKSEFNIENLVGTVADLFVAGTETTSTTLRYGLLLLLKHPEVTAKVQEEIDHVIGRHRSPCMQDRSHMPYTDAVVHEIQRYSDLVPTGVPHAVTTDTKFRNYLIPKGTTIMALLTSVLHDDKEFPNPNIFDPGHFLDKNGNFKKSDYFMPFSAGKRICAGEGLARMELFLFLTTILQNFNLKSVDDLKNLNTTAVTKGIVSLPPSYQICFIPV
recorded endpoint: pIC50
Remember, pIC50 is on a log scale: it is -log10 of the molar concentration.

For the compound C[N+](C)(C)CCC(=O)c1cccc2ccccc12.[I-] [α-NETA] , give its measured pIC50 value. 5.82
